B1: TPR t1 (parent)
chain: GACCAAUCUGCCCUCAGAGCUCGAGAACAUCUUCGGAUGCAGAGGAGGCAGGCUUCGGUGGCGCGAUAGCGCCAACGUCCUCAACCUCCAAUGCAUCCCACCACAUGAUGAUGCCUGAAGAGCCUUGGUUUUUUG

variants of: B1; experiment: polymerase ribozyme fitness, log enrichment relative to wild type (log ratio); higher = more active; in vitro selection for triplet polymerase activity
Entries are sorted into classes by polymerase ribozyme fitness (log ratio) as follows: bottom bin (below -4), middle bin (-4 to below -2), top bin (-2 or more)

>>> print(df.to_string())
                              variant_id       group
 0                  C22G C82A C94G A111U  bottom bin
 1                   U7A C12U C62A G113C  middle bin
 2                A2G U9G G10U A27C C56G  middle bin
 3                 G42A G60U C114G U129C  middle bin
 4            G45U A83C G93U U116C C123G  bottom bin
 5                   C12G C49G C70A C97U     top bin
 6           C31U C70A G113A C123G C124A  bottom bin
 7                      G60A A103C A111C  bottom bin
 8                        C11G G52A C56A     top bin
 9      A2G U9C C13U A18U C56G C72G A95G  bottom bin
10                            U38A G120A     top bin
11  A2G C13U A46U C86A G113U G120U C123G  bottom bin
12             C40G A46C G48U C73G C124G  bottom bin
13                            C94A G113A     top bin
14                        A26U G48A C72U  middle bin
15                  G17U G63A U81A G110C  bottom bin
16                        C8A C62U A118C  middle bin
17                        C49U C53U C97U     top bin
18                             G36U G57A  middle bin
19        C56U A84G A91U C98A C99A G120U  bottom bin
20                       A50C C79G U125A     top bin
21                            C49G G127A     top bin
22                       C13U U78C C115U     top bin
23                        U30C G61A C79G  bottom bin
24                       C40G A43G C114U  bottom bin
25                C40G G113U C114U U133G  middle bin
26                 C28G C34G G110A G117U  bottom bin
27                       A27C C85U C123U  middle bin
28                            A50U C115A     top bin
29                             G10U C56A     top bin
30                 G48U G57A C101U C124G     top bin
31                   U9A A16G G93A G117A     top bin
32                       C53U G71U G127A     top bin
33                    A5U C15G G71C A84U  bottom bin
34                             C34G A83G  bottom bin
35         U9C G17U U32C C49U C72U A105G  bottom bin
36                            C70G U106A  middle bin
37                   G39A U55A G77C A84C  middle bin
38                    U9C G48U G52C C94U  middle bin
39                   C4G U9C U112C G117A     top bin
40                             C56G G71U  middle bin
41                             C15U G60U     top bin
42                         U9G C11G C94U  bottom bin
43             G19A U54C C73G C82G C114G  bottom bin
